Overview of reported kon across a group of binders:
# SYSTEM: T1, SARS-CoV-2 Receptor Binding Domain (RBD) protein (SARS-CoV-2, UniProt P0DTC2 319-541)
# T1 construct: also called Sars-Cov-2 (COV2)
# PROTOCOL_DESCRIPTION: SPR (Carterra LSA); scFv captured by anti-V5, RBD as analyte
Give the number; M⁻¹ s⁻¹ is assumed, so skip it.

• COVID19_P01_H05 (scFv, V domains shown) VH: QVQLVQSGAEVKKPGSSVKVSCKASGGTFSNFALTWVRQAPGQGLEWMGLINPSGGSTSYAQRFQGRVTITADESTSTAYMELSSLRSEDTAVYYCARDSVMGGMDVWGQGTLVTVSS VL: SSYVLTQPPSVSVAPGKTARITCGGNNIGSKSVHWYQQKPGQAPVLVIYYDSDRPSGIPERFSGSNSGNTATLTISRVEAGDEADYYCQVWASSSDYVFGGGTKLTVLA = 423000

Okay, now this binder:
QUERY: Could you share which kon value was measured for COVID19_P14_B08 (scFv, V domains shown) VH: QVQLVQSGAEVKKPGSSVKVSCKASGYTFTSYYVHWVRQAPGQGLEWMGGILPILGTPHYAQKFQGRVTITADESTSTAYMELSSLRSEDTAVYYCALETVMGGMTAWGQGTLVTVSS VL: SSYVLTQPPSVSVAPGKTARITCGGNNIGSKSVHWYQQKPGQAPVLVIYYDSDRPSGIPERFSGSNSGNTATLTISRVEAGDEADYYCQVWDSSSDYVFGGGTKLTVLA ?
RESULT: 374000

// data source = patent US20230272051A1
